Entries and their measured AC50 follow.
Target: Replicative DNA helicase DnaB (Mycobacterium tuberculosis)
Sequence (P9WMR3 whole entry): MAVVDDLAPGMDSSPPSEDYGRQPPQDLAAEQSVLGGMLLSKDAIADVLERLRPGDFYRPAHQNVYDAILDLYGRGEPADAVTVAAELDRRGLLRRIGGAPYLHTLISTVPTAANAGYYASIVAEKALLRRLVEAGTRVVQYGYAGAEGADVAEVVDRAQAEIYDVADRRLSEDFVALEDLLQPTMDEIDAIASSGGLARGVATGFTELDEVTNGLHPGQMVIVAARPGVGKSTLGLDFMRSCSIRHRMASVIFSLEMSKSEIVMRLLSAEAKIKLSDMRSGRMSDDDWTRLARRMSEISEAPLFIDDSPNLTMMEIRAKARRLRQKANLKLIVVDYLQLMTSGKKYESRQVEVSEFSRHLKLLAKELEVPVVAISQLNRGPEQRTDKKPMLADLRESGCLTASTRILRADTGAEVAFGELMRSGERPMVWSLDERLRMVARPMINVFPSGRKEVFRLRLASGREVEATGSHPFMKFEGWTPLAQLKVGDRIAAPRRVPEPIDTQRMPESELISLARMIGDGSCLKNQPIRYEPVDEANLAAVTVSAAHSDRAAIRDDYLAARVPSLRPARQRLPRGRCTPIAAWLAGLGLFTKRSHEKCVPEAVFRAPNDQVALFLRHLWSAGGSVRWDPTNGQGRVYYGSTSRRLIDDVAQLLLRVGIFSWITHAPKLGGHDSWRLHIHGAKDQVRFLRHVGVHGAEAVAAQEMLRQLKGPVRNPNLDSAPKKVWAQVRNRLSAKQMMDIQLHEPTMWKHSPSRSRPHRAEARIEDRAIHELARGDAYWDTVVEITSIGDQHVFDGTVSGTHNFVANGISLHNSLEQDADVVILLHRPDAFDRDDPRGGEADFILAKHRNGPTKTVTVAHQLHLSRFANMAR
Experiment: DnaB intein splicing inhibitors, dose response, biochemical, cell-free fluorescence (AID 449749)
Type: functional
The source made the active and inactive calls. Rule as the data show it: actives have a measured AC50 and inactives only a lower limit.
Measure: AC50

{"columns": ["Compound", "Test value"],
 "data": [
  ["Cc1c(/N=C2\\C=CC(=O)c3ccccc32)c(=O)n(-c2ccccc2)n1C", "1.63 µM (active)"],
  ["COc1nc(N/N=C/c2ccc(-c3ccccc3[N+](=O)[O-])o2)nc(N2CCOCC2)n1", "16 µM (active)"],
  ["CC(C)N(CC(=O)Nc1ccc(Cl)cc1C(F)(F)F)C(=O)CCl", "< 0.018 µM (inconclusive)"],
  ["CC(=O)NC1C(=O)N(CCN2CCOCC2)c2ccc(Br)cc21 (stereo not drawn)", "14.3 µM (active)"],
  ["CN(C)C(=S)N=Nc1[nH]c2ccccc2c1O", "10.7 µM (active)"],
  ["O=C1CC/[N+](=C\\c2ccccc2Cl)[N-]1", "7.23 µM (active)"],
  ["COC(=O)CCS(=O)(=O)c1nc(-c2ccccc2)cc(C(F)(F)F)n1", "3.44 µM (active)"],
  ["O=C(O)c1ccc2c3c(ncnc13)-c1ccccc1C2=O", "4.07 µM (active)"],
  ["CCO/C(O)=C1/C(C)=NC2(O)c3ccccc3C(=O)C12O (stereo not drawn)", "24 µM (active)"],
  ["O=C(O)c1ccc(NC2=C(Cl)C(=O)c3ccccc3C2=O)cc1", "3.36 µM (active)"],
  ["O=C(CSc1nnc(Cc2ccccc2)o1)Nc1cccc(F)c1", "71.3 µM (active)"],
  ["CC(=O)NC1N=C(C)N(c2ccccc2)C1=O (stereo not drawn)", "4.66 µM (active)"],
  ["CC(=O)Oc1ccc(/C=C2/C(=O)N(c3ccccc3)N=C2C)cc1", "2.76 µM (active)"]
]}
